- target.under.test: KRAS G12D (Homo sapiens, UniProt P01116, G12D)
- Sequence (P01116 1-169 isoform P01116-2 G12D): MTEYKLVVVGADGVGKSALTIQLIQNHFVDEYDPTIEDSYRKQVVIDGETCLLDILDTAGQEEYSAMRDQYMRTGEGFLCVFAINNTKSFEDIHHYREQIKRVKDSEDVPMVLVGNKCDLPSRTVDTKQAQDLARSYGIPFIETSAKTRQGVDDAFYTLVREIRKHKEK
- procedure.text: In-vitro RAS-RAF binding assay (RRB), HTRF/FRET
- Type: biochemical
- Set-up: Biotinylated KRAS protein amino acids 1-169 (produced at Erasca); made in house
- condition.details: Table 2, average of multiple runs of each compound; read-out: Inhibition of RAS-RAF Binding (in-vitro) KRAS (G12D) IC50
Quick reference for pIC50 among some molecules
Scale explanation: pIC50 corresponds to minus log10 of a concentration expressed in moles per litre.

Reference set, count: 2
| smiles.notation | pIC50 |
| --- | --- |
| CC(C)[C@@H](C(=O)N1C[C@H](O)C[C@H]1C(=O)N[C@@H](C)c1ccc(-c2c(F)cccc2F)cc1)c1cc(OCC2CCN(CCOc3nc(N4CC5CCC(C4)N5)c4cc(C(F)(F)F)c(-c5ccc(F)c6sc(N)c(C#N)c56)c(F)c4n3)CC2)no1 | 7.60 |
| C#Cc1c(F)ccc2cc(O)cc(-c3ncc4c(N5CC6CCC(C5)N6)nc(OC[C@@H]5CCCN5CCCOCCC(=O)N[C@H](C(=O)N5C[C@H](O)C[C@H]5C(=O)N[C@@H](C)c5ccc(-c6ccccc6C#N)cc5)C(C)(C)C)nc4c3F)c12 | 8.05 |

Next molecule, please.
Ask | // returns reported pIC50 for input `C[C@H](NC(=O)[C@@H]1C[C@@H](O)CN1C(=O)[C@@H](NC(=O)CCOCCCN1CCC[C@H]1COc1nc(N2CC3CCC(C2)N3)c2cc(C(F)(F)F)c(-c3ccc(F)c4sc(N)c(C#N)c34)c(F)c2n1)C(C)(C)C)c1ccc(-c2c(F)ccc(F)c2F)cc1`
Reply | 8.04

* * *

- target.under.test: KRAS G12D (Homo sapiens, UniProt P01116, G12D)
- procedure.text: In-vitro RAS-RAF binding assay (RRB), HTRF/FRET
- Assay type: biochemical
- Set-up: Biotinylated KRAS protein amino acids 1-169 (produced at Erasca); made in house
- condition.details: Table 2, average of multiple runs of each compound; read-out: Inhibition of RAS-RAF Binding (in-vitro) KRAS (G12D) IC50
Quick reference for pIC50 among some molecules
Scale explanation: pIC50 corresponds to minus log10 of a concentration expressed in moles per litre.

Reference set, count: 4
| smiles.notation | target.under.test | pIC50 |
| --- | --- | --- |
| C#Cc1c(F)ccc2cc(O)cc(-c3ncc4c(N5CC6CCC(C5)N6)nc(OC[C@@H]5CCCN5CCCOCCC(=O)N[C@H](C(=O)N5C[C@H](O)C[C@H]5C(=O)N[C@@H](C)c5ccc(-c6c(C)cccc6C)cc5)C(C)(C)C)nc4c3F)c12 | KRAS G12D (Homo sapiens, UniProt P01116, G12D) | 8.03 |
| Cc1ncsc1-c1ccc([C@H](C)NC(=O)[C@@H]2C[C@@H](O)CN2C(=O)[C@@H](NC(=O)CCCCN2CCC[C@H]2COc2nc(N3CC4CCC(C3)N4)c3cc(Cl)c(-c4ccc(F)c5sc(N)nc45)c(F)c3n2)C(C)(C)C)cc1 | KRAS G12D (Homo sapiens, UniProt P01116, G12D) | 7.91 |
| C#Cc1c(F)ccc2cc(O)cc(-c3ncc4c(N5CC6CCC(C5)N6)nc(OC[C@@H]5CCCN5CCCOCCC(=O)N[C@H](C(=O)N5C[C@H](O)C[C@H]5C(=O)N[C@@H](CO)c5ccc(-c6c(F)cccc6F)cc5)C(C)(C)C)nc4c3F)c12 | KRAS G12D (Homo sapiens, UniProt P01116, G12D) | 8.08 |
| C#Cc1c(F)ccc2cc(O)cc(-c3ncc4c(N5CC6CCC(C5)N6)nc(OC[C@@H]5CCCN5CCCOCCC(=O)N[C@H](C(=O)N5C[C@H](O)C[C@H]5C(=O)N[C@@H](C)c5ccc(-c6c(C)ccnc6C)cc5)C(C)(C)C)nc4c3F)c12 | KRAS G12D (Homo sapiens, UniProt P01116, G12D) | 8.12 |

Ask | // returns reported pIC50 for input `C#Cc1c(F)ccc2cc(O)cc(-c3ncc4c(N5CC6CCC(C5)N6)nc(OC[C@@H]5CCCN5CCCOCCC(=O)N[C@H](C(=O)N5C[C@H](O)C[C@H]5C(=O)N[C@@H](C)c5ccc(-c6c(F)cc(F)cc6F)cc5)C(C)(C)C)nc4c3F)c12`
Reply | 8.13

Ask | // returns reported pIC50 for input `C[C@H](NC(=O)[C@@H]1C[C@@H](O)CN1C(=O)[C@@H](NC(=O)CCOCCCN1CCC[C@H]1COc1nc(N2CC3CCC(C2)N3)c2cc(C(F)(F)F)c(-c3ccc(F)c4sc(N)c(C#N)c34)cc2n1)C(C)(C)C)c1ccc(-c2c(F)cccc2F)cc1`
Reply | 7.84
